# tested on: CYP3A4 (Homo sapiens (Human))
# Sequence (P08684 whole entry): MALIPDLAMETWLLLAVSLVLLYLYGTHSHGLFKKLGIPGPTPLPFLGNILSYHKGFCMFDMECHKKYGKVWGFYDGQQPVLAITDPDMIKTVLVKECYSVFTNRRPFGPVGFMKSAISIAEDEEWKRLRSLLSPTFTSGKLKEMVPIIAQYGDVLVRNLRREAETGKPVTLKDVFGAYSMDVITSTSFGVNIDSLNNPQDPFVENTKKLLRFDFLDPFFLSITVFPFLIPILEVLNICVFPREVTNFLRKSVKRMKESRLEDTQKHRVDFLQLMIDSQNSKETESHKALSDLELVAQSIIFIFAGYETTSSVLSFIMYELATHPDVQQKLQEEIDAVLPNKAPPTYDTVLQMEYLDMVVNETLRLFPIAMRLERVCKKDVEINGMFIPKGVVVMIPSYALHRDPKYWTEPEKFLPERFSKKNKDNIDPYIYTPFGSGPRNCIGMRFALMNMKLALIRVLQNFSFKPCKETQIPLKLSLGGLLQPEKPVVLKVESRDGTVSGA
# protocol text: Cytochrome P450 inhibition assay, recombinant CYP3A4 (BFC substrate)
# Format: in vitro ADME
# experimental conditions: recombinant enzyme
outcome measure: pIC50
Lab note: report pIC50 as minus log10 of the concentration in molar units, number only.

A selection of reference data follows.
molecule	pIC50
CNCC(Cc1ccc(C)s1)c1ccc2ccccc2c1 (stereo not drawn) [Compound 139]	4.89
CNC[C@H](c1ccc2ccccc2c1)[C@H](O)c1ccc(Cl)s1 (single isomer, unassigned) [Compound 58]	5.02
CNCC(Cc1cccnc1)c1ccc2ccccc2c1 (stereo not drawn) [Compound 74]	5.09
CNC[C@H](c1ccc2ccccc2c1)[C@H](OCC(=O)N1CC[C@@H](O)C1)c1ccccc1 [Compound 34]	4.70
NC[C@@H](c1ccc2ccccc2c1)C(O)c1ccncc1Cl (stereo partly drawn) [Compound 118]	4.70
CNCC(c1ccc(F)c(Cl)c1)[C@H](O)c1ccccc1 (stereo partly drawn) [Compound 73]	4.70

q: Can you share its pIC50? I mean this molecule: CNC[C@H](c1ccc(Cl)c(Cl)c1)[C@H](O)c1cccc(OC)n1 [Compound 167]
a: 4.70

q: So what does the record say about pIC50 for CNC[C@H](c1ccc(Cl)c(Cl)c1)[C@H](O)c1cccc([N+](=O)[O-])c1 [Compound 102] ?
a: 5.24

q: Reported pIC50 for CNC[C@H](c1ccc(Cl)c(Cl)c1)[C@@H](O)c1ccccc1-c1cccs1 [Compound 100] : what is it?
a: 5.09

q: Data request, read-out pIC50, for CNC[C@@H](c1ccc2ccccc2c1)[C@H](O)c1cc(F)cc(F)c1 [Compound 142]
a: 4.70

---

# tested on: human dopamine transporter (Homo sapiens (Human), UniProt Q01959)
# Sequence (Q01959 whole entry): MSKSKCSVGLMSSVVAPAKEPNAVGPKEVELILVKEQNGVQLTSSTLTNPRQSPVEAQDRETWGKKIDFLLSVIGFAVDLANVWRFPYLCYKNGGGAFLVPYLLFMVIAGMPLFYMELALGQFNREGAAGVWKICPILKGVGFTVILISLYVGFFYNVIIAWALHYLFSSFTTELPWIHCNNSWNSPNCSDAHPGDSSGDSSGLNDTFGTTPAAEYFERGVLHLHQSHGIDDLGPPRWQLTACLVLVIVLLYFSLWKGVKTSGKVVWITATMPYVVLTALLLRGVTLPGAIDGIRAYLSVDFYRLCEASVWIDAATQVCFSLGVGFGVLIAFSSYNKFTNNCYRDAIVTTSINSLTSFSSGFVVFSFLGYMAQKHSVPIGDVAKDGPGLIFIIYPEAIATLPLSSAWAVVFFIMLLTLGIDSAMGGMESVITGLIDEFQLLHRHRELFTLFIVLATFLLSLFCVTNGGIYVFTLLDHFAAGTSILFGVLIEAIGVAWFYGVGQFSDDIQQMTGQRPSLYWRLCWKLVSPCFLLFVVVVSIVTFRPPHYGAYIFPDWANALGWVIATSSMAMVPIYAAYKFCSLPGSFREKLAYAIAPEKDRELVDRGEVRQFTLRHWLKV
# protocol text: Human DAT (dopamine transporter) uptake assay
# Type: cell-based
# experimental conditions: read-out: hDAT Ki
# Procedure: This protocol was designed to measure inhibition of uptake by the human dopamine transporter. […] The Assay Buffer (AB) was 1×HBSS and 0.02 M HEPES. The HEK293F cells were transfected with the human dopamine transporter and frozen in 1 mL aliquots at about 1E+07 cells/mL. […] A 1 mL sample (1:2 dilution) was prepared, and the cells were counted. […] Due to the proprietary nature of the dye formulation, all dye concentrations were expressed as a percentage of the vendor-recommended dye reconstitution. […]
pKi: −log10 of the molar value.
Hi, to clarify the labels: 1.0 covers pKi from 7 upward, 0.0 covers anything below 7.

Examples with answers:
compound	category
NC[C@@H](Cc1ccccc1O)c1ccc2ccccc2c1	1.0
CNCC(Cc1ccccc1O)c1ccc2ccccc2c1 (centres unmarked) [Compound 52]	1.0
CNC[C@@H](c1ccc2ccccc2c1)[C@@H](O)c1cccnc1 [Compound 49]	0.0
CNC[C@H](c1ccc(Cl)c(Cl)c1)[C@@H](O)c1ccccc1	1.0
CNC[C@H](c1ccc(Cl)c(Cl)c1)[C@H](O)c1ccccc1SC	1.0

Now turn to the next compound.
q: Check this compound for pKi at or above 7: CNC[C@H](c1ccc(Cl)c(Cl)c1)[C@H](O)c1cccc(I)c1 (single isomer, unassigned)
a: 1.0

---

# tested on: human dopamine transporter (Homo sapiens (Human))
# protocol text: Human DAT (dopamine transporter) uptake assay
# Assay type: cell-based
# experimental conditions: read-out: hDAT Ki
Each entry below carries its reported pKi.
Here pKi is given on a logarithmic scale as minus log10 of the concentration in mol/L.

molecule	pKi
CNC[C@H](c1ccc(Cl)c(Cl)c1)[C@@H](O)c1cccnc1OC	7.02
CNC[C@H](c1ccc(Cl)c(Cl)c1)[C@H](O)c1cccc(OC)n1	6.88
NC[C@@H](c1ccc2ccccc2c1)[C@@H](O)c1ccc(Cl)nc1	6.90

q: Kindly state the measured pKi obtained for O[C@@H](c1ccccc1)[C@@H](CNCC(F)(F)F)c1ccc2ccccc2c1 (single isomer, unassigned) with human dopamine transporter (Homo sapiens (Human)).
a: 7.06

q: Give the reported pKi for `CNC[C@@H](Cc1cccnc1)c1ccc(Cl)c(Cl)c1` (system: human dopamine transporter (Homo sapiens (Human))).
a: 6.95
